Tested on: FGFR3 enzyme
MEASUREMENT_DESCRIPTION: FGFR Enzymatic Assay (FRET peptide phosphorylation), FGFR3
Type: biochemical
RUN_PARAMETERS: IC50 ratio showing FGFR3 selectivity; Table 2A, pre-incubated for 4 hours
The compounds listed here are annotated with their FGFR1/FGFR3.

Worked cases, answers included:
GIVEN_SMILES	MEAS_VALUE
CCn1cc(-c2cc3c(cn2)CN(c2c(F)c(OC)cc(OC)c2F)C(=O)C32CC2)c(C)n1	>5
COc1cc(OC)c(F)c(N2Cc3cnc(-c4cn(C)nc4C)cc3N(c3ccc4ccncc4c3)C2=O)c1F	>10
COc1cc(OC)c(F)c(N2Cc3cnc(-c4cn(CCN(C)C)nc4C)cc3C3(CC3)C2=O)c1F	>3
COC(=O)Nc1ccc(N2C(=O)N(c3c(F)c(OC)cc(OC)c3F)Cc3cnc(-c4cn(C)nc4C)cc32)cc1	>5
CCNC(=O)c1ccc(-c2cc3c(cn2)CN(c2c(F)c(OC)cc(OC)c2F)C(=O)N3CC)cn1	>10

Task: Consider the compound `COc1cc(OC)c(F)c(N2Cc3cnc(-c4cn(C)nc4C)cc3N(c3ccc(F)cc3)C2=O)c1F` and give its measured FGFR1/FGFR3.
Output: >10

Task: Cool, now `CCN1C(=O)N(c2c(F)c(OC)cc(OC)c2F)Cc2cnc(-c3ccc(C(=O)NCCO)nc3)cc21`
Output: >5
